PROTOCOL DESCRIPTION: Solubility in selected solvents
Assay type: physicochemical
MEASUREMENT SETUP: propylene glycol, organic solvent or mixture, thermodynamic from solid
READOUT NAME: solubility (mg/mL)
Answers are plain numbers, in mg/mL.

Task: Would you mind telling me what solubility value was observed for CC(=O)O.CN(CCCNCc1ccc2c(c1)OCO2)c1nc(-n2ccnc2)ns1 [Compound 2 acetate] ?
Result: 36.7

* * *

PROTOCOL DESCRIPTION: Moisture sorption/desorption analysis for hygroscopicity
Assay type: physicochemical
MEASUREMENT SETUP: moisture sorption/desorption behavior
READOUT NAME: hygroscopicity

COMPOUND | READOUT NAME | RESULT
CN(CCCNCc1ccc2c(c1)OCO2)c1nc(-n2ccnc2)ns1 | hygroscopicity | not hygroscopic
CN(CCCNCc1ccc2c(c1)OCO2)c1nc(-n2ccnc2)ns1.Cl [Compound 2 hydrochloride] | hygroscopicity | not hygroscopic
